- tested_on: WT KRAS (Homo sapiens)
- Sequence (P01116 1-188 isoform P01116-2): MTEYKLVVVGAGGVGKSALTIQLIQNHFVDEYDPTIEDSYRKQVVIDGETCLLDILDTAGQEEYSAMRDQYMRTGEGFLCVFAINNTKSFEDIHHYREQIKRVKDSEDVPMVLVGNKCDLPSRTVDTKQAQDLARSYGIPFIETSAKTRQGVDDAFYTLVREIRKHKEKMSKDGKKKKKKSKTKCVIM
- assay_summary: KRAS WT Probe Displacement Assay (TR-FRET, GDP-loaded)
- Type: binding
- stated_conditions: KRAS WT, read-out: KRAS^WT Probe Displacement Assay IC50
Listed here: items and their measured IC50.

| compound | tested_on | IC50 |
| --- | --- | --- |
| CO[C@H]1CCN(CC2(COc3nc4c5c(nc(-c6cc(N)cc(C)c6C(F)(F)F)c(F)c5n3)OCC[C@@H]3[C@@H]5CC[C@H](CN43)N5)CC2)C[C@H]1F [Example 185] | WT KRAS (Homo sapiens) | 3 to 1000 nM |

// IC50 value for Cc1cc(N)cc(-c2nc3c4c(nc(OCC5(CN6CCN(C7COC7)CC6)CC5)nc4c2F)N2C[C@H]4CC[C@H](N4)[C@H]2CCO3)c1C(F)(F)F [Example 191] : 3 to 1000 nM

Noted for Cc1cc(N)cc(-c2nc3c4c(nc(OCC5(CN6CCC7(COC7)C6)CC5)nc4c2F)N2C[C@H]4CC[C@H](N4)[C@H]2CCO3)c1C(F)(F)F [Example 189] : its IC50 reads 3 to 1000 nM
